For each entry below, report its total protein half-life in vivo value.
Assay: total protein half-life in vivo (active degradation + dilution); higher = more stable protein
Conditions: E. coli NCM3722 delta-clpP delta-lon delta-hslV; growth: N-lim chemostat; doubling time 6 h
Numbers only here, please. The scale is h.

Entry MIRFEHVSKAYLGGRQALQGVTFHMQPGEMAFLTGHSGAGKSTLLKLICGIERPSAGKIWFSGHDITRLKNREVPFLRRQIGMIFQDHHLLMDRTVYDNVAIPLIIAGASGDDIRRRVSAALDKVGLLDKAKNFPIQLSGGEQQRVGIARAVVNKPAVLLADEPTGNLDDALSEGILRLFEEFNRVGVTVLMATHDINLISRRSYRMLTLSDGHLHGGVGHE [P0A9R7] has what total protein half-life in vivo?
5.85

Entry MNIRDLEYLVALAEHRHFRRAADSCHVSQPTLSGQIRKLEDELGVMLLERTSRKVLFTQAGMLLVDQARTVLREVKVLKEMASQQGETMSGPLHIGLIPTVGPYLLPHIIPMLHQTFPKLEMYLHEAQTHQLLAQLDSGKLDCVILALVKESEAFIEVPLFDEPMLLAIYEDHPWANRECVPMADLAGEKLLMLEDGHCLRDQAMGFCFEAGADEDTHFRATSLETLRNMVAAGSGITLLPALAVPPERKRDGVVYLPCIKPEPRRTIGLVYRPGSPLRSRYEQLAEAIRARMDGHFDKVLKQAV [P0ACQ4] has what total protein half-life in vivo?
6.42

* * *

For each entry below, report its total protein half-life in vivo value.
Experiment: total protein half-life in vivo (active degradation + dilution); higher = more stable protein
Details: wild type E. coli NCM3722; growth: C-lim chemostat; doubling time 12 h
Numbers only here, please. The scale is h.

Entry MRKLTALFVASTLALGAANLAHAADTTTAAPADAKPMMHHKGKFGPHQDMMFKDLNLTDAQKQQIREIMKGQRDQMKRPPLEERRAMHDIIASDTFDKVKAEAQIAKMEEQRKANMLAHMETQNKIYNILTPEQKKQFNANFEKRLTERPAAKGKMPATAE has what total protein half-life in vivo?
8.06

Entry MHVTLVEINVHEDKVDEFIEVFRQNHLGSVQEEGNLRFDVLQDPEVNSRFYIYEAYKDEDAVAFHKTTPHYKTCVAKLESLMTGPRKKRLFNGLMP has what total protein half-life in vivo?
3.93

Entry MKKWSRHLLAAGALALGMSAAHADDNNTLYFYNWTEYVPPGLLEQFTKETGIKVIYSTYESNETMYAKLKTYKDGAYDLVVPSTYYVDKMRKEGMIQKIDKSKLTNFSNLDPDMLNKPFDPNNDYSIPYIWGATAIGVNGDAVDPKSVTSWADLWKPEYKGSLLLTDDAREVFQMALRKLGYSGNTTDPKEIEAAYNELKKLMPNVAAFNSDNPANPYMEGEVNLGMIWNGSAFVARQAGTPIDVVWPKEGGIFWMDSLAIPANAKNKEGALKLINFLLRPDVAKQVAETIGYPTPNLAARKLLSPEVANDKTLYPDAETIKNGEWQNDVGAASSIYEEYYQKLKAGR [P0AFK9] has what total protein half-life in vivo?
13.6

Entry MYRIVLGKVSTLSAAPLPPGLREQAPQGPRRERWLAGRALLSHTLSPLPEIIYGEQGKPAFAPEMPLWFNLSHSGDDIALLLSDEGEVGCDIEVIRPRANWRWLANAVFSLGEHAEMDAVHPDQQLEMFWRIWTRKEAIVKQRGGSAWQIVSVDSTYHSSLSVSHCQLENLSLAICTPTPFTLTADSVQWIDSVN has what total protein half-life in vivo?
8.28

Entry MRNLVKYVGIGLLVMGLAACDDKDTNATAQGSVAESNATGNPVNLLDGKLSFSLPADMTDQSGKLGTQANNMHVWSDATGQKAVIVIMGDDPKEDLAVLAKRLEDQQRSRDPQLQVVTNKAIELKGHKMQQLDSIISAKGQTAYSSVILGNVGNQLLTMQITLPADDQQKAQTTAENIINTLVIQ [P0AEE1] has what total protein half-life in vivo?
11.3

Entry MVKTQRVVITPGEPAGIGPDLVVQLAQREWPVELVVCADATLLTNRAAMLGLPLTLRPYSPNSPAQPQTAGTLTLLPVALRAPVTAGQLAVENGHYVVETLARACDGCLNGEFAALITGPVHKGVINDAGIPFTGHTEFFEERSQAKKVVMMLATEELRVALATTHLPLRDIADAITPALLHEVIAILHHDLRTKFGIAEPRILVCGLNPHAGEGGHMGTEEIDTIIPVLNELRAQGMKLNGPLPADTLFQPKYLDNADAVLAMYHDQGLPVLKYQGFGRGVNITLGLPFIRTSVDHGTALELAGRGKADVGSFITALNLAIKMIVNTQ has what total protein half-life in vivo?
9.78

Entry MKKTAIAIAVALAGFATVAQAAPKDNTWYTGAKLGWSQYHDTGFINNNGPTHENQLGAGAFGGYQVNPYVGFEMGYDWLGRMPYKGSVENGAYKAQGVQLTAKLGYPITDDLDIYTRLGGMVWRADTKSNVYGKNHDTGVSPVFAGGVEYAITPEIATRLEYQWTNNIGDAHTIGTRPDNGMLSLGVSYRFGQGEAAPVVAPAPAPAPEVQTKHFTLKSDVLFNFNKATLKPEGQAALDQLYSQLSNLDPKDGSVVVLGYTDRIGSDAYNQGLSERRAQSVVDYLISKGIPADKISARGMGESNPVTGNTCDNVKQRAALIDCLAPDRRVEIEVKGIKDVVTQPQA [P0A910] has what total protein half-life in vivo?
13

Entry MAMHLNENLDDNGEMHDINVTPFIDVMLVLLIIFMVAAPLATVDVKVNLPASTSTPQPRPEKPVYLSVKADNSMFIGNDPVTDETMITALNALTEGKKDTTIFFRADKTVDYETLMKVMDTLHQAGYLKIGLVGEETAKAK [P0ABV2] has what total protein half-life in vivo?
1.88

Entry MENNEIQSVLMNALSLQEVHVSGDGSHFQVIAVGELFDGMSRVKKQQTVYGPLMEYIADNRIHAVSIKAYTPAEWARDRKLNGF [P0A9W6] has what total protein half-life in vivo?
7.8

Entry MTKIIAVTACPSGVAHTYMAAEALESAAKAKGWEVKVETQGSIGLENELTAEDVASADMVILTKDIGIKFEERFAGKTIVRVNISDAVKRADAIMSKIEAHLAQTA has what total protein half-life in vivo?
8.01

Entry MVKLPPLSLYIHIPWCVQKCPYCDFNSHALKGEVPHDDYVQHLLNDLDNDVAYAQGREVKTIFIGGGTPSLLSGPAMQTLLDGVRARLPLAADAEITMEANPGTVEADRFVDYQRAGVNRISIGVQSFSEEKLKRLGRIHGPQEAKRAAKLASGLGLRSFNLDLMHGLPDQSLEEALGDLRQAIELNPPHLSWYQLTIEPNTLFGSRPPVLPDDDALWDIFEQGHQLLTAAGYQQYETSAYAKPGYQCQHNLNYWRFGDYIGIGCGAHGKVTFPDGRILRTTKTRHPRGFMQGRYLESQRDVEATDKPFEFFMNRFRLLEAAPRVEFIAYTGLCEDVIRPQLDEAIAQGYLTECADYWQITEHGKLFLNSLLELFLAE has what total protein half-life in vivo?
8.1

Entry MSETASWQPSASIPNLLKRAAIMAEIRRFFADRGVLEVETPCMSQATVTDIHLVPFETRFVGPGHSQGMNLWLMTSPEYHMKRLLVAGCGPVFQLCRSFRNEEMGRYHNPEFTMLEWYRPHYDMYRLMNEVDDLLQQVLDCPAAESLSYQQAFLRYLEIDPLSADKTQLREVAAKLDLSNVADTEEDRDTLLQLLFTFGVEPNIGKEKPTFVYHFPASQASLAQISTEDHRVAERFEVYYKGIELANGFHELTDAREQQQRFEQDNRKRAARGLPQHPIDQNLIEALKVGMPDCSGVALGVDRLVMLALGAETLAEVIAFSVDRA [P0A8N7] has what total protein half-life in vivo?
9.92
